# Lookup of reported pIC50 keyed by entry
# target-system: Recombinant human HDAC8 (Homo sapiens)
# Construct: purchased Enzo Life Sciences BML-SE145-0100
# Sequence (Q9BY41 whole entry): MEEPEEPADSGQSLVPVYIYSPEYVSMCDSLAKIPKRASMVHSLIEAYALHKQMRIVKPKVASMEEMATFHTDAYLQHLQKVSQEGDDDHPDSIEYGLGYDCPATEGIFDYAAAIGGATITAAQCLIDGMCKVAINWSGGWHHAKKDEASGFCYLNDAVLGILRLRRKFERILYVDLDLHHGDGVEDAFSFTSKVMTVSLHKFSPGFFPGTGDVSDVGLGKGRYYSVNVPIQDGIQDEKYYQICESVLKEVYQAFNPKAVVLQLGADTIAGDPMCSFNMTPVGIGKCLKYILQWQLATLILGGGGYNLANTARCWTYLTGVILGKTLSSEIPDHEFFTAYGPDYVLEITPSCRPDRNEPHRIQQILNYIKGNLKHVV
# procedure-details: Human HDAC enzyme inhibitor Fluor-de-Lys assay, HDAC8
# Assay type: biochemical
# measurement-parameters: recombinant human HDAC8, Fluor-de-Lys assay
pIC50: −log10 of the molar value.

[
  {
    "compound": "CCC(=O)CCCCC[C@H](NC(=O)CC1CC2(C1)CN(C(C)C)C2)c1ncc(-c2cc3ccccc3nc2OC)[nH]1",
    "limit-sign": "=",
    "pIC50": 5.71
  },
  {
    "compound": "CCC(=O)CCCCC[C@H](NC(=O)C1CCC2(CC1)CN(C)C2)c1ncc(-c2cc3ccccc3nc2OC)[nH]1 [Compound 316]",
    "limit-sign": "=",
    "pIC50": 5.77
  },
  {
    "compound": "CCC(=O)CCCCC[C@H](NC(=O)[C@H]1CC12CCN(Cc1ccccc1)CC2)c1ncc(-c2cc3ccccc3nc2OC)[nH]1",
    "limit-sign": "=",
    "pIC50": 5.09
  },
  {
    "compound": "CCC(=O)CCCCC[C@H](NC(=O)[C@H]1CC12CCN(C)CC2)c1ncc(-c2cnc3c(c2)ncn3C)[nH]1",
    "limit-sign": "=",
    "pIC50": 5.96
  },
  {
    "compound": "CCC(=O)CCCCC[C@H](NC(=O)[C@H]1CC12CCN(CC1CC1)CC2)c1ncc(-c2cc3cccnc3cc2OC)[nH]1",
    "limit-sign": "<",
    "pIC50": 6.05
  },
  {
    "compound": "CCC(=O)CCCCC[C@H](NC(=O)C1=NOC2(CCN(C(C)C)CC2)C1)c1nnc(-c2cc3ccccc3nc2OC)o1",
    "limit-sign": "=",
    "pIC50": 4.70
  },
  {
    "compound": "CCC(=O)CCCCC[C@H](NC(=O)[C@@H]1CC12CCN(C(N)=O)CC2)c1ncc(-c2cc3ccccc3nc2OC)[nH]1 (single isomer, unassigned)",
    "limit-sign": "=",
    "pIC50": 5.92
  },
  {
    "compound": "CCC(=O)CCCCC[C@H](NC(=O)[C@H]1CC12CCN(CC(C)C)CC2)c1ncc(-c2cc3ccccc3nc2OC)[nH]1",
    "limit-sign": "=",
    "pIC50": 5.48
  }
]
